Data provenance: ChEMBL document CHEMBL5108048

- Assay Comment: AUC (0-infinity) in Sprague-Dawley rat at 2 mg/kg,po
- Assay type: ADME, organism-based
- Parameters: time infinity, dose 2 mg/kg, route po
- Recorded Conditions: in vivo
Endpoint Label: AUC(0-inf) (ng·h/mL)

Consider the following illustrative entries.
Query: What does the record list as AUC(0-inf) for "CNC(=O)[C@]1(C)CC[C@@H](Nc2ncc3c(Br)nn(-c4ccc(-c5nnc(C)s5)cc4)c3n2)C1" ?
Response: 4600

Query: Moving on to the next compound: "CNC(=O)[C@]1(C)CC[C@@H](Nc2ncc3c(Br)nn(-c4ccc(-c5nnc(C)s5)c(C#N)c4)c3n2)C1"
Response: 1150

Query: Moving on to the next compound: "CNC(=O)[C@]1(C)CC[C@@H](Nc2ncc3c(Br)nn(-c4ccc(-c5nnc(C)s5)c(CCO)c4)c3n2)C1"
Response: 518

[A] CNC(=O)[C@]1(C)CC[C@@H](Nc2ncc3c(Br)nn(-c4ccc(-c5nnc(C)s5)c(CCC#N)c4)c3n2)C1
[B] CNC(=O)[C@]1(C)CC[C@@H](Nc2ncc3c(Br)nn(-c4ccc(-c5nnc(C)s5)c(CCS(C)(=O)=O)c4)c3n2)C1
Query: Parameter check: reported AUC(0-inf) is higher for which label, A or B ? Reply with the label of the item you choose.
Response: A

====

- Assay Comment: Clearance in Balb/c mouse at 0.5 mg/kg,iv
- Format: ADME, organism-based
- Recorded Conditions: in vivo
Endpoint Label: clearance (mL/min/kg)
Could you give me the number in mL/min/kg? Just the number is fine.

Query: What does the record list as clearance for "CNC(=O)[C@]1(C)CC[C@@H](Nc2ncc3c(Br)nn(-c4ccc(-c5nnc(C)s5)cc4)c3n2)C1" ?
Response: 10

====

- Tested Target: eIF-2-alpha kinase GCN2 (Homo sapiens, UniProt Q9P2K8)
- Sequence (Q9P2K8 whole entry): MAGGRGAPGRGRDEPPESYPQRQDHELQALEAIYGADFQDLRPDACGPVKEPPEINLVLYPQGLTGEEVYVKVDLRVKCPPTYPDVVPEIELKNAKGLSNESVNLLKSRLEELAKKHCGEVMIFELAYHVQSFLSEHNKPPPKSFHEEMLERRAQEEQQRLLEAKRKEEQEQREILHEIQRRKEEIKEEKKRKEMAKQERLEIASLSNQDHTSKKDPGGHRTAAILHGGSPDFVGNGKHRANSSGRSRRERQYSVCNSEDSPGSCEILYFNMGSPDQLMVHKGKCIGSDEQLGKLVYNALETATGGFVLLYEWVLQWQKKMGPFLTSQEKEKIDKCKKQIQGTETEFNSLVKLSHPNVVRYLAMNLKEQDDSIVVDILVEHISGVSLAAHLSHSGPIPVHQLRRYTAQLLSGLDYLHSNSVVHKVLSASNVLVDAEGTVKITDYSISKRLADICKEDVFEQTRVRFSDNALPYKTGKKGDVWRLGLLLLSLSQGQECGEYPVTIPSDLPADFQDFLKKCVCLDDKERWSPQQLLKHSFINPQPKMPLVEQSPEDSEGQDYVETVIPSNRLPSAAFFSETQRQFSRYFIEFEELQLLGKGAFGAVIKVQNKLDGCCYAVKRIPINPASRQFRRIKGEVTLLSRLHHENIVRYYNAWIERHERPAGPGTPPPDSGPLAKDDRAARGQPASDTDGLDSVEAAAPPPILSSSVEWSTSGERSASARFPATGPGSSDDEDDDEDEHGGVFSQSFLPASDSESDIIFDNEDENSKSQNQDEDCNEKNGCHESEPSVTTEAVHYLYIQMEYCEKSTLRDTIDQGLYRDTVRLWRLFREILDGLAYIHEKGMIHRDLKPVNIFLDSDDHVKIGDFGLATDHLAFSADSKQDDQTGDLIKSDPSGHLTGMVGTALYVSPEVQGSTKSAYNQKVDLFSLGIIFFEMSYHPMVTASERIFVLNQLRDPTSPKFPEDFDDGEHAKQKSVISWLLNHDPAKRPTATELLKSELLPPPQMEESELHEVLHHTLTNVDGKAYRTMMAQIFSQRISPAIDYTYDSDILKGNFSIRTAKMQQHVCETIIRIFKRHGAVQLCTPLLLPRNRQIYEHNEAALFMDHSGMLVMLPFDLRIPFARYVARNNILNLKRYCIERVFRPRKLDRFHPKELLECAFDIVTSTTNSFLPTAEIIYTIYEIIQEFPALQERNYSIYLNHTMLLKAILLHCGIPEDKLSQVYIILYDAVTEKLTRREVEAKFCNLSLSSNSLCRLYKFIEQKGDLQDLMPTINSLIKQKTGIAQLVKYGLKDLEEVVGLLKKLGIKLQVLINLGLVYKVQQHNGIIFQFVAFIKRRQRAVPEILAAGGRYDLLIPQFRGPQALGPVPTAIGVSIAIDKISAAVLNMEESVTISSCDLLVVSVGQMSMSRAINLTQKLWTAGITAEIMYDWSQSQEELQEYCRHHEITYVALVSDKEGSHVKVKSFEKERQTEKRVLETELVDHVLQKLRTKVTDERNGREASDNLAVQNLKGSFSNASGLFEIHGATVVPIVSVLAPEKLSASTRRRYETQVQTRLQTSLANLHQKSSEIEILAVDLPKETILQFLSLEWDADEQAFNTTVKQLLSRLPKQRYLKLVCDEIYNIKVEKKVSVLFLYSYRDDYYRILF
- Assay Comment: Inhibition of GCN2 (unknown origin)
pIC50: −log10 of the molar value.
Endpoint Label: pIC50

Query: What does the record list as pIC50 for "CNC(=O)[C@]1(C)CC[C@@H](Nc2ncc3c(Br)nn(-c4ccc(-c5nnc(C)s5)c(CC#N)c4)c3n2)C1" ?
Response: 7.11

Query: Moving on to the next compound: "Brc1nn(-c2ccc3ncccc3c2)c2nc(Nc3cnn(C4CCNCC4)c3)ncc12"
Response: 8.52

Query: Moving on to the next compound: "COCCNC(=O)[C@H]1CC[C@@H](Nc2ncc3c(Br)nn(-c4ccc5ncccc5c4)c3n2)C1"
Response: 7.21

Query: Moving on to the next compound: "CNC(=O)[C@]1(C)CC[C@@H](Nc2ncc3c(Br)nn(-c4ccc(-c5ncc(C)s5)cc4)c3n2)C1"
Response: 7.12

Query: Moving on to the next compound: "COCc1noc([C@@H]2CC[C@@H](Nc3ncc4c(Br)nn(-c5ccc6ncccc6c5)c4n3)C2)n1"
Response: 6.97

[I] CNC(=O)[C@]1(C)CC[C@@H](Nc2ncc3c(Br)nn(-c4ccc(-c5nnc(C)s5)c(F)c4)c3n2)C1
[II] CNC(=O)[C@@H]1CC[C@@H](Nc2ncc3c(Br)nn(-c4ccc5ncccc5c4)c3n2)C1
Query: Of the pair I and II , name the member with the lesser recorded pIC50. Reply with the label of the item you choose.
Response: II

====

- Tested Target: Cyclin-dependent kinase-like 4 (Homo sapiens)
- Sequence (Q5MAI5 whole entry): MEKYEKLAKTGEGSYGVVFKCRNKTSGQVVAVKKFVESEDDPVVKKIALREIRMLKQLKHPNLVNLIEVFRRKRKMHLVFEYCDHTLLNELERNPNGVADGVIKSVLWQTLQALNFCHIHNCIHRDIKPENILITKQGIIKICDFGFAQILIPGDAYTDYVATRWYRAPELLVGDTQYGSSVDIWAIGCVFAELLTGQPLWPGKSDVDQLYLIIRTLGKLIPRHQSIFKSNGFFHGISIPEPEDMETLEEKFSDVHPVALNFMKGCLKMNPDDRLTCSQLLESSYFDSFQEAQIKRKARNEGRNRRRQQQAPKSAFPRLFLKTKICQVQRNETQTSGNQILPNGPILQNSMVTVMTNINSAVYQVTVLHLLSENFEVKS
Endpoint Label: pIC50
pIC50 is a log-scale quantity: -log10 of the concentration expressed in molar.

Query: Reported pIC50 for Cyclin-dependent kinase-like 4 (Homo sapiens), given "CNC(=O)[C@]1(C)CC[C@@H](Nc2ncc3c(Br)nn(-c4ccc(-c5nnc(C)s5)cc4)c3n2)C1" ?
Response: 6.93
